The measured values listed here are drawn from the supplement of paper PMC9732359.

Known protein stability index of a selection of sequences
# Run Description: protein stability index of a GFP-peptide fusion (yeast GPS) (PSI 1-4); higher = more stable; sorted into four equal gates, so the index is relative within each strain
# Test Parameters: san1∆
Lab note: jot the number down without any unit.

Some sequences with recorded protein stability index:
Seq: AQAQAQAQAQAQAAQAA [GAL11]
protein stability index: 3.26
--
Seq: AGKFELLDRILPKLKAT [SNF2]
protein stability index: 1.77
--
Seq: SNSMDRSSSASNEFVPN [SWI1]
protein stability index: 2.65

Recorded protein stability index for NKVSNTVSPTQDKDAIR [SIR2] , please?
3.17

Recorded protein stability index for MAKTLKDLDGWQVIITD [SIR3] , please?
2.81

Recorded protein stability index for FKKDFEVNISSLDAREA [RPC40] , please?
1.98

Recorded protein stability index for DPNNPVDFDGLDIKRVG [SNF12] , please?
3.32

Recorded protein stability index for ETLENNIVSVLTAGVNS [RPN11] , please?
2.24

Recorded protein stability index for AGETLILDGLTVRLVNL [SRB2] , please?
2.46
